Origin of measurements: PubChem BioAssay AID1159580

normalized growth values, listed per item
Assay: chemical genetic growth profiling, strain panel (AID 1159580);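 also: tested at 20 µM; growth read once vehicle control cultures reached saturation at 30 °C; 1 = growth at the plate median or of vehicle wells; lower values mean less growth of the strain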
Settings: S. cerevisiae deletion strains, growth OD, locus YDR195W, strain ref2
The whole screen tested about 5,500 compounds, of which about 2,000 (36%) were called active. Not shown: some 18% with an inconclusive outcome. The list shows a part of the results.

Fill blank: measured normalized growth of the compound CC1=C(/C=C/C(C)=C/C=C/C(C)=C/CO)C(C)(C)CCC1 is ____. 0.988 (inactive)

Continue with Nc1nc2c(c(=O)[nH]1)N(C=O)C(CNc1ccc(C(=O)N[C@@H](CCC(=O)O)C(=O)O)cc1)CN2 (stereo partly specified) 0.906 (inactive)

Continue with COc1ccc(CN(CCN(C)C)c2ncccn2)cc1 1 (inactive)

Continue with CCOC(=O)C1=C[C@]2(CC)CCCN3CCc4c(n1c1ccccc41)[C@@H]32 1.07 (inactive)

Continue with COC(=O)[C@H]1[C@H]2C[C@@H]3c4[nH]c5cc(OC)ccc5c4CCN3C[C@H]2C[C@@H](OC(=O)c2cc(OC)c(OC)c(OC)c2)[C@@H]1OC 0.972 (inactive)

Continue with CCN(CC)CCOC(=O)C(Cc1cccc2ccccc12)CC1CCCO1 (stereo unspecified) 0.996 (inactive)

Continue with CO[C@@H]1[C@@H](O[C@@H]2O[C@H](C)[C@@H](O[C@H]3C[C@@](C)(O)[C@H](O)[C@H](C)O3)[C@H](N(C)C)[C@H]2O)[C@@H](CC=O)C[C@@H](C)[C@@H](O[C@H]2CC[C@H](N(C)C)[C@@H](C)O2)/C=C/C=C/C[C@H](C)OC(=O)C[C@H]1O 1 (inactive)

Continue with CCC(COC(=O)c1cc(OC)c(OC)c(OC)c1)(c1ccccc1)N(C)C (stereo unspecified) 0.984 (inactive)

Continue with CN1CCc2cccc3c2C1Cc1ccc(O)c(O)c1-3 (stereo unspecified) 1.02 (inactive)

Continue with NCCCCN=C(N)N 1.04 (inactive)

Continue with C[C@@H]1CC2C3CCC4=CC(=O)C=C[C@]4(C)[C@@]3(F)[C@@H](O)C[C@]2(C)[C@@]1(O)C(=O)COP(=O)(O)O (stereo partly specified) 0.936 (inactive)

Continue with Cc1cccc(CN2CCN(C(c3ccccc3)c3ccc(Cl)cc3)CC2)c1 (stereo unspecified) 1.52 [resistant] (active)

Continue with NC(=O)N/N=C\c1ccc([N+](=O)[O-])o1 0.967 (inactive)

Continue with COP(=S)(OC)Oc1ccc(SC)c(C)c1 1.2 [resistant] (active)

Continue with CC[C@]12CCCN3CCc4c(n(c5ccccc45)[C@](O)(C(=O)OC)C1)[C@@H]32 0.952 (inactive)

Continue with CC1=C(/C=C/C(C)=C/C=C/C(C)=C/C(=O)O)C(C)(C)CCC1 1.03 (inactive)

Continue with CC1=CC(=O)CC(C)(C)C1(O)/C=C/C(C)=C\C(=O)O (stereo unspecified) 1.03 (inactive)
